Entries and their Herbicidal efficacy against ECHCG values follow.
Tested on: Echinochloa crus-galli
Assay notes: Pre-emergence herbicidal efficacy, ECHCG
Format: in vivo
Condition info: Table B1, application rate 320 g/ha, scored visually after about 3 weeks vs untreated controls
Text: C.1 Pre-Emergence Herbicidal Action and Crop Plant Compatibility Seeds of monocotyledonous and dicotyledonous weed plants and crop plants are placed in plastic or organic planting pots and covered with soil. […] After about 3 weeks, the effect of the preparations is scored visually in comparison with untreated controls as percentages. […]
Could you give me the number in %? Just the number is fine.

Consider the worked cases shown below.
Cc1ccc2c(c1)[C@H](Nc1nc3n(n1)CCN(S(C)(=O)=O)C3)CCC2 | 90
Cc1ccc2c(c1)[C@H](Nc1nc3n(n1)CCCCS3)CC2 | 100
Cc1ccc2c(c1)C(Nc1nc3n(n1)CCC(=O)N3CC1CCCCC1)CC2 (stereo not drawn) | 90
[O-][S+]1CCCCn2nc(NC3CCCc4ccccc43)nc21 (stereo not drawn) | 100
Cc1ccc2c(c1)C(Nc1nc3n(n1)CCCCS3)CC2 (stereo not drawn) | 100

Ask: Specify measured Herbicidal efficacy against ECHCG for `CC(=O)N1CCn2nc(N[C@@H]3CCCc4ccc(C)cc43)nc2C1` .
Reply: 100

Ask: Assign Herbicidal efficacy against ECHCG to the following record: CC1CCc2ccccc2C1Nc1nc2n(n1)CCCCS2 (stereo not drawn)
Reply: 100

Ask: Give the value of Herbicidal efficacy against ECHCG reported for the following: Cc1ccc2c(c1)[C@H](Nc1nc3n(n1)CCCC[S+]3[O-])CC2 (stereo partly drawn)
Reply: 100

Ask: Give Herbicidal efficacy against ECHCG for the following compound: `Cc1ccc2c(c1)[C@H](Nc1nc3n(n1)CCN(S(=O)(=O)C1CC1)C3)CCC2`
Reply: 100

Ask: Please indicate Herbicidal efficacy against ECHCG recorded for Cc1ccc2c(c1)C(Nc1nc3n(n1)CCCCS3(=O)=O)CCC2 (stereo not drawn)
Reply: 100

Ask: State its Herbicidal efficacy against ECHCG: `Cc1ccc2c(c1)[C@H](Nc1nc3n(n1)CCN(C(=O)C1CC1)C3)CC2`
Reply: 100

Ask: Look up and report measured Herbicidal efficacy against ECHCG for this entry: `Cc1ccc2c(c1)[C@H](Nc1nc3n(n1)CCN(S(C)(=O)=O)C3)[C@@H](C)C2`
Reply: 100

Ask: Name the recorded Herbicidal efficacy against ECHCG of the compound listed here: Cc1ccc2c(c1)C(Nc1nc3n(n1)CCCC[S+]3[O-])CC2 (stereo not drawn)
Reply: 100

Ask: Tell me its Herbicidal efficacy against ECHCG given `Fc1ccc2c(c1)[C@H](Nc1nc3n(n1)CCCCS3)CCC2` as the entry.
Reply: 100

Ask: Supply recorded Herbicidal efficacy against ECHCG for `CC(=O)N1CCn2nc(N[C@@H]3CCCc4ccccc43)nc2C1` here.
Reply: 100

Ask: // Input: Cc1ccc2c(c1)C(Nc1nc3n(n1)CCC(=O)N3C)CC2 (stereo not drawn) . Output its Herbicidal efficacy against ECHCG only.
Reply: 100

Ask: Entry `Cc1ccc2c(c1)[C@H](Nc1nc3n(n1)CCN(S(C)(=O)=O)C3)CC2` needs its Herbicidal efficacy against ECHCG filled in; supply it.
Reply: 100

Ask: Look up and state reported Herbicidal efficacy against ECHCG for `Cc1ccc2c(c1)[C@H](Nc1nc3n(n1)CCCCS3(=O)=O)CC2`
Reply: 90
